Consider the following variants; for each one, report its scaled log2 fold change.
B1: library; numbered along this chain (parent)
chain: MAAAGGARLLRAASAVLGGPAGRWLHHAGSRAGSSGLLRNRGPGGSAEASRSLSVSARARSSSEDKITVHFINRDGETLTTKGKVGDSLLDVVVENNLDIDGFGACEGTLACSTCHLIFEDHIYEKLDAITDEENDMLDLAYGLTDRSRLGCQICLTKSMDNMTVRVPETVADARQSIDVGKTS

Variants of: B1
Assay: scaled log2 fold change in cell abundance, elesclomol vs control (0 = silent mean, 1 = nonsense mean) (scaled log2 ratio); higher = higher viability under elesclomol (loss of FDX1 cuproptosis function);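 note: variant abundance is its share of total variant reads in each endpoint sample, from next-generation sequencing of the integrated ORF PCR-amplified out of genomic DNA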
Details: with HEK293T FDX1 KO; elesclomol 40 nM; glucose 10 mM; 11 days
Numbers only.

| Mutant Designation | scaled log2 fold change |
| --- | --- |
| G33T | 0.176 |
| L79N | 0.247 |
| D161E | 0.705 |
| L150P | 0.82 |

Value sought for every listed variant: scaled log2 fold change.
1. D136V
2. G18I

0.696
-0.0341

Value sought for every listed variant: scaled log2 fold change.
1. S30N
2. C106Y

[-0.64, 1.2]

The reported numbers originate from the supplement of paper PMC12855868.
